tested on: Neuregulin-1 EGF-like domain; assay: small molecules binding NRG1 EGF domain – biochemical, small-molecule microarray, 635 nm fluorescence, primary screen (AID 1081); details: higher = more signal;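 also: binding of the protein to compounds printed on small-molecule microarray slides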
PROPERTY NAME: composite z-score
One number for each entry.

Quick batch: composite z-score for everything below.
1. CN1C(=O)C2C=CC(C(O)c3ccccc3)N(N3CCCCC3)C2C1=O (stereo not given)
2. O=C1C2C=CC(C(O)C=Cc3ccc([N+](=O)[O-])cc3)N(n3cnnc3)C2C(=O)N1Cc1ccccc1 (stereo not given)
3. CO[C@H]1O[C@H](CO)[C@@H](OC(=O)Nc2cccc(F)c2)[C@H](OC(=O)Nc2ccccc2)[C@H]1OC(=O)Nc1ccccc1
4. CCCCCCc1nc(-c2ccc(-c3ccc(Cl)c(Cl)c3)o2)c(C)c2c1[Si](C(C)C)(C(C)C)OC2

1. 1.02
2. 1.19
3. 1.36
4. -0.416

Report composite z-score for COCCOC(=O)N1C(=O)[C@@]2(c3cc(C#CC4(O)CCCCCC4)ccc31)[C@H](C(=O)Nc1nc3ccccc3s1)[C@H]1C(=O)O[C@H](c3ccccc3)[C@H](c3ccccc3)N1[C@@H]2c1ccc(OCCO)cc1 please.
1.15
